Biological target: SFRP-1 (Homo sapiens, UniProt Q8N474)
Sequence (Q8N474 32-314): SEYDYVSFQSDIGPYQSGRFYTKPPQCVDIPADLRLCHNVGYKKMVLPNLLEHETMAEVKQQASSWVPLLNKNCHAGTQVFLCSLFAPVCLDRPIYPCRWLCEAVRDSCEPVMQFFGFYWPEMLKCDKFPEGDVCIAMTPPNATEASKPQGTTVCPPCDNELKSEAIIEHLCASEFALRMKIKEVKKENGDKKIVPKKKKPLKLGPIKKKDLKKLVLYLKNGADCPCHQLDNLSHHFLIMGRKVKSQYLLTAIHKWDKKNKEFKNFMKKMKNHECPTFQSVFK
Experiment: Cell-based assay for in vitro measurement of SFRP-1/SARP2 antagonist activity (U2OS cells co-transfected with 16x TCF-tk-Luciferase reporter, Wnt and hSFRP-1);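 further: U2OS cells co-transfected with a TCF-tk luciferase reporter, a Wnt vector, hSFRP-1 or empty vector and CMV-βgal, luciferase luminescence read in cell lysates alongside βgal activity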
Settings: U2OS, read-out: Fold Induction with SFRP-1, U2OS cells, single dose 10 μM, luciferase reporter, fold induction over SFRP-1 control
Structures can show the parent of a compound that is named as a salt.
Listing of entries alongside the reported fold induction at 10 µM.
Provide a numeric answer; units are not to be included.

Below, 5 molecules whose answers are already recorded.
CNc1ccc(S(=O)(=O)c2ccc(C(F)(F)F)c(S(=O)(=O)NC3CCNCC3)c2)cc1 [Example 842] ... 4.2
N#Cc1ccc(C(=O)N2CCC(NS(=O)(=O)c3cc(S(=O)(=O)c4ccccc4)ccc3Cl)CC2)cc1 [Example 657] ... 2.4
NCCNS(=O)(=O)c1cc(S(=O)(=O)c2ccccc2)ccc1C(F)(F)F [Example 762, hydrochloride] ... 2.2
O=C(c1ccc(Cl)c(Cl)c1)N1CCC(NS(=O)(=O)c2cc(S(=O)(=O)c3ccccc3)ccc2C(F)(F)F)CC1 [Example 712] ... 2.9
COc1cccc(S(=O)(=O)c2ccc(C(F)(F)F)c(S(=O)(=O)NCCC#N)c2)c1 [Example 745] ... 4.5

IN: Entry CN(CCO)CCNS(=O)(=O)c1cc(S(=O)(=O)c2ccccc2)ccc1C(F)(F)F [Example 905] : reported fold induction at 10 µM = ?
OUT: 1.5

IN: Entry CN(CCNS(=O)(=O)c1cc(S(=O)(=O)c2ccccc2)ccc1C(F)(F)F)C(=O)C(C)(C)C [Example 852] : reported fold induction at 10 µM = ?
OUT: 3.3
